# TARGET ENTITY: Tissue alpha-L-fucosidase (Bos taurus, UniProt Q2KIM0)
# Sequence (Q2KIM0 whole entry): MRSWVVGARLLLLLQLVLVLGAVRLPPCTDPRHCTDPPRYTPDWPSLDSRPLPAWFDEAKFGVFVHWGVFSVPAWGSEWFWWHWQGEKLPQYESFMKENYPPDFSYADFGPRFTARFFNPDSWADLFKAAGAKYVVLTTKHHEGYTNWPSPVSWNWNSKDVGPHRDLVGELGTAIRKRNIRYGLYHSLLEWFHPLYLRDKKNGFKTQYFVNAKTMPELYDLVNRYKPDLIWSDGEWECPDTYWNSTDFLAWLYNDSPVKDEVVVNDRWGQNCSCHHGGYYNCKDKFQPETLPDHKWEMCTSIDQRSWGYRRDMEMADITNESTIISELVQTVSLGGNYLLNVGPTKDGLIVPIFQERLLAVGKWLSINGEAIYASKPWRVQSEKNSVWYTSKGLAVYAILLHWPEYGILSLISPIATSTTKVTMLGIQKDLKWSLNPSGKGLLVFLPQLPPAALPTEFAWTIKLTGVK
PROPERTY MEASURED: IC50 (µM)
Response body: numeric value in µM, unit text excluded.

>  <COMPOUND>
COc1ccc([C@@H]2N[C@@H](CO)[C@H](O)[C@H]2O)cc1O [L-RADICAMINE A]

>  <TARGET ENTITY>
Tissue alpha-L-fucosidase (Bos taurus, UniProt Q2KIM0)

>  <RESULT UNITS>
µM

>  <IC50>
41

$$$$
>  <COMPOUND>
Cc1ccc(S(=O)(=O)Nc2cccc(C(=O)/C=C/c3ccc(O)c(O)c3)c2)cc1

>  <TARGET ENTITY>
Tissue alpha-L-fucosidase (Bos taurus, UniProt Q2KIM0)

>  <RESULT UNITS>
µM

>  <IC50>
91

$$$$
>  <COMPOUND>
CCC/C=C1/OC(=O)c2ccccc21 [(E)-BUTYLIDENEPHTHALIDE]

>  <TARGET ENTITY>
Tissue alpha-L-fucosidase (Bos taurus, UniProt Q2KIM0)

>  <RESULT UNITS>
µM

>  <IC50>
82

$$$$
>  <COMPOUND>
CC(C)=CCc1cc(-c2oc3cc(O)c(CC=C(C)C)c(O)c3c(=O)c2O)cc(O)c1O [BROUSSONOL E]

>  <TARGET ENTITY>
Tissue alpha-L-fucosidase (Bos taurus, UniProt Q2KIM0)

>  <RESULT UNITS>
µM

>  <IC50>
89

$$$$
>  <COMPOUND>
O=C1Nc2cc(Cl)ccc2/C1=C/c1ccccc1[N+](=O)[O-]

>  <TARGET ENTITY>
Tissue alpha-L-fucosidase (Bos taurus, UniProt Q2KIM0)

>  <RESULT UNITS>
µM

>  <IC50>
65

$$$$

The compound identified as Cc1cc(O)c2c(c1)C(=O)c1cc(O)cc(O)c1C2=O [EMODIN] registered its IC50 at 32

The compound identified as OC[C@@H]1N[C@@H](c2ccc(O)cc2)[C@H](O)[C@H]1O registered its IC50 at 41

The compound identified as CC(C)c1ccc(/C=C2\C(=O)Nc3cc(Cl)ccc32)cc1 registered its IC50 at 65

The compound identified as O=C1c2cccc(O)c2C(=O)c2c(O)cc(CO)cc21 [ALOE-EMODIN] registered its IC50 at 32

The compound identified as Cc1cc2c(c(=O)[nH]1)C(=O)O/C2=C\c1ccc(CO)n1Cc1ccccc1 registered its IC50 at 51.1

The compound identified as OC[C@@H]1[C@@H](O)[C@H](O)[C@H]2[C@H](O)[C@@H](O)CN21 [CASUARINE] registered its IC50 at 82

The compound identified as Cc1ccc(S(=O)(=O)Nc2ccc(C(=O)/C=C/c3ccc(O)c(O)c3)cc2)cc1 registered its IC50 at 91

The compound identified as COc1cc(O)c2c(c1)C(=O)c1cc(C)cc(O)c1C2=O [PHYSCION] registered its IC50 at 32

###

# PROTOCOL NOTES: Clearance in rat
# Assay type: ADME
# APPLIED CONDITIONS: in vivo
PROPERTY MEASURED: clearance (mL/min/kg)
Response body: numeric value in mL/min/kg, unit text excluded.

The molecule identified as CCOC(=O)c1ccc(-n2c(/C=C3\OC(=O)c4c3cc(C)[nH]c4=O)ccc2CO)cc1 registered its clearance at 35.2

Source listed as ChEMBL document CHEMBL4680156.
